molecular target: H1047R PIK3CA enzyme (Homo sapiens, UniProt P42336, H1047R); experiment: ADP-Glo Biochemical PIK3CA Kinase Assay
Sequence (P42336 whole entry H1047R): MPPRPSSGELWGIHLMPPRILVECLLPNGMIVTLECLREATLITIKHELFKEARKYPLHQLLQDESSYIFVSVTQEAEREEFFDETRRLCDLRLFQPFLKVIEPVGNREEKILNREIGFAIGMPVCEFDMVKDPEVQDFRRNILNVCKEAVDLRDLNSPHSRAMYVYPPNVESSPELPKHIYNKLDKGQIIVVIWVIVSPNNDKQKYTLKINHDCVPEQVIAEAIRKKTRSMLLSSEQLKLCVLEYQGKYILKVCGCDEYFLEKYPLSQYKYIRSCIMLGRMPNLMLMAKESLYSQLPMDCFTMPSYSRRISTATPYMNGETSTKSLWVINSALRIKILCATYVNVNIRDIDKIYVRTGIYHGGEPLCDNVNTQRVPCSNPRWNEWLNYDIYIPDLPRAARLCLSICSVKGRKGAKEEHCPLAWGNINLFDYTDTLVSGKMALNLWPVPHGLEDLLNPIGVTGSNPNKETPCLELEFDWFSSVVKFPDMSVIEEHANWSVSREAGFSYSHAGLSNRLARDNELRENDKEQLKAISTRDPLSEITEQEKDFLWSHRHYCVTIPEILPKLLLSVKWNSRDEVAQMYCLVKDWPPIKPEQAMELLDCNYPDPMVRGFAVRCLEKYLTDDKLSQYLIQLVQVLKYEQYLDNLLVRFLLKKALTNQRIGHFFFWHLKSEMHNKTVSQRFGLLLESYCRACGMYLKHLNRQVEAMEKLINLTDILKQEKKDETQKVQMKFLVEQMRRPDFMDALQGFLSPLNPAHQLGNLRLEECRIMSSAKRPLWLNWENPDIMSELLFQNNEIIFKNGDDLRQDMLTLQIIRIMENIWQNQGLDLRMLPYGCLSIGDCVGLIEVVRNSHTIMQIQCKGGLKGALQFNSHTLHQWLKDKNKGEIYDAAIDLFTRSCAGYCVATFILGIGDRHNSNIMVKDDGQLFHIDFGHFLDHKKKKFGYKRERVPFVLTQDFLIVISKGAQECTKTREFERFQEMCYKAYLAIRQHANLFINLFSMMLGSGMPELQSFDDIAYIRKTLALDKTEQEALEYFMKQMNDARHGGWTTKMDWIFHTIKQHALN
Sequence (P27986 whole entry partner): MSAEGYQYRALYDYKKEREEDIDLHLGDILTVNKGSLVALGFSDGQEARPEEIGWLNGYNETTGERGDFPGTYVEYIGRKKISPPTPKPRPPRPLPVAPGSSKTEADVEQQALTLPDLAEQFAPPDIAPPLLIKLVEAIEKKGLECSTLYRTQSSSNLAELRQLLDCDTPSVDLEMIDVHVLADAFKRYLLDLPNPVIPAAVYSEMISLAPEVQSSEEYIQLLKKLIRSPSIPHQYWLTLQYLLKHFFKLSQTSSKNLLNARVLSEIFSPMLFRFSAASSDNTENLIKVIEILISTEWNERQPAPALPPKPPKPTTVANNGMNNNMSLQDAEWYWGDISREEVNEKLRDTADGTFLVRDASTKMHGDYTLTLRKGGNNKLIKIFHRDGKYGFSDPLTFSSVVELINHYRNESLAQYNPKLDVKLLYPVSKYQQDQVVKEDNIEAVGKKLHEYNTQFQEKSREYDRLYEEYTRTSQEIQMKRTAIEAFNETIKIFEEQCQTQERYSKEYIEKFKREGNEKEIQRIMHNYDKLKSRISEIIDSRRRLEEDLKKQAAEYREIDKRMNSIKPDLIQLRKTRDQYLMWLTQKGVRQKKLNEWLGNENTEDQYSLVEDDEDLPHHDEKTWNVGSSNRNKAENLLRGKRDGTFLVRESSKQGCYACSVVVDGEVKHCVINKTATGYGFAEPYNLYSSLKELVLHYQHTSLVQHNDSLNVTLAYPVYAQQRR
pIC50: −log10 of the molar value.
MEASUREMENT_LABEL: pIC50

Observe how each entry below is paired with its result.
O=C(Nc1cc(-c2cc3ncnn3cc2F)cc2c1C(c1cc(F)ccc1Cl)NC2=O)c1cc(F)cc(C(F)(F)F)c1 (stereo not drawn) | ≥ 7.00
O=C1NC(c2ccccc2Cl)c2c(NC(=O)c3nsc4ccccc34)cc(-c3cn[nH]c3)nc21 (stereo not drawn) | 6.30 to 7.00

# evaluate next
O=C1NC(c2cc(F)ccc2Cl)c2c(NC(=O)N3CC(C(F)F)c4ccccc43)cccc21 (mixture of isomers) has a reported pIC50 of ≥ 7.00

====

target: H1047R PIK3CA enzyme (Homo sapiens, UniProt P42336, H1047R); test: ADP-Glo Biochemical PIK3CA Kinase Assay
Answer each item with its documented IC50.

Cc1cc2ncc(-c3cc(NC(=O)c4cc(F)cc(C(F)(F)F)c4)c4c(c3)C(=O)NC4c3cc(F)ccc3Cl)cn2n1 (centres unmarked) | ≤ 100 nM
O=C(Nc1cc(-c2ccc3nnnn3c2)cc2c1[C@H](c1cc(F)ccc1Cl)NC2=O)c1cc(F)cc(C(F)(F)F)c1 | ≤ 100 nM
Cn1cc(-c2cc(NC(=O)c3cc(F)cc(C(F)(F)F)c3)c3c(c2)C(=O)N[C@H]3c2cc(F)ccc2Cl)ccc1=O (single isomer, unassigned) | ≤ 100 nM
CC(=O)Nc1cc(NC(=O)N2C[C@](O)(C(F)(F)F)c3cc(F)ccc32)c2c(c1)C(=O)N[C@H]2c1cc(F)ccc1Cl (single isomer, unassigned) | 100 to 500 nM
O=C(Nc1cc(CC2(O)CNC2)cc2c1C(c1cc(F)ccc1Cl)NC2=O)c1cc(F)cc(C(F)(F)F)c1 (centres unmarked) | ≤ 100 nM
CC(C)(C#N)n1cc(-c2cc(NC(=O)N3C[C@@](O)(C(F)(F)F)c4cc(F)ccc43)c3c(c2)C(=O)N[C@H]3c2cc(F)ccc2Cl)cn1 (single isomer, unassigned) | 1000 to 10000 nM
N#Cc1cc2ncnn2cc1-c1cc(NC(=O)c2cc(F)cc(C(F)(F)F)c2)c2c(c1)C(=O)N[C@@H]2c1cc(F)ccc1Cl [Compound I-1645] | 1000 to 10000 nM
COc1ccc(Cl)cc1C(=O)Nc1cc(Br)cc2c1C(c1cc(F)ccc1Cl)NC2=O (centres unmarked) | 1000 to 10000 nM

Dear reader, for each entry below, please note its IC50.
1. Cc1ccccc1C1NC(=O)c2cccc(NC(=O)N3CCCc4ccccc43)c21 (centres unmarked)
2. O=C1NC(c2cc(F)ccc2Cl)c2c(NC(=O)C3CC(O)C3)cc(-c3ccc4ncnn4c3)cc21 (centres unmarked)
3. O=C(Nc1cc(NC2COC2)cc2c1[C@H](c1cc(F)ccc1Cl)NC2=O)c1cc(F)cc(C(F)(F)F)c1
4. O=C(Nc1cc(-c2ccc3cncn3c2)cc2c1C(c1cc(F)ccc1Cl)NC2=O)c1cc(F)cc(C(F)(F)F)c1 (centres unmarked)
5. O=C(Nc1cc(Br)cc2c1C(c1cc(F)ccc1Cl)NC2=O)c1cc(O)cc(F)c1 (centres unmarked)
6. O=C(Nc1cc(-c2ccn3ncnc3c2)cc2c1C(c1cc(F)ccc1O)NC2=O)c1cc(F)cc(C(F)(F)F)c1 (centres unmarked)
7. O=C1NC(O)(c2cccc(F)c2F)c2c(NC(=O)c3csc4ccccc34)ccnc21 (centres unmarked)

# output
["1000 to 10000 nM", "10000 to 100000 nM", "≤ 100 nM", "≤ 100 nM", "1000 to 10000 nM", "1000 to 10000 nM", "10000 to 100000 nM"]

# per-item lookup of IC50; items listed below
1. O=C1NC(c2cc(F)ccc2Cl)c2c(NC(=O)C3(O)CCCC3)cc(-c3ccc4ncnn4c3)cc21 (centres unmarked)
2. CC(C)(O)c1cc(NC(=O)c2cc(F)cc(Cl)c2)c2c(c1)C(=O)NC2c1cc(F)ccc1Cl (centres unmarked)
3. O=C1N[C@H](c2cc(F)ccc2Cl)c2c(NC(=O)N3C[C@@](O)(C(F)(F)F)c4cc(F)ccc43)cc(C(F)F)cc21 (single isomer, unassigned)
4. CC(=O)N[C@H]1CC[C@@H](C(=O)Nc2cc(-c3ccc4ncnn4c3)cc3c2C(c2cc(F)ccc2Cl)NC3=O)CC1 (mixture of isomers)
5. O=C(Nc1ccnc2c1C(c1ccccc1Cl)NC2=O)c1cc(F)cc(Cl)c1 (centres unmarked)

# output
10000 to 100000 nM
≤ 100 nM
1000 to 10000 nM
10000 to 100000 nM
1000 to 10000 nM

====

target: H1047R PIK3CA enzyme (Homo sapiens, UniProt P42336, H1047R); test: ADP-Glo Biochemical PIK3CA Kinase Assay
Please go through the items and note down their IC50.

O=C1N[C@@H](c2cc(F)ccc2Cl)c2c(NC(=O)N3C[C@@](O)(C(F)(F)F)c4cc(F)ccc43)cc(-n3ncccc3=O)cc21 (single isomer, unassigned) | 0.5 to 1 µM

Consider the following items and state reported IC50 for each.
1. Cc1cn(-c2cc(NC(=O)N3C[C@@](O)(C(F)(F)F)c4cc(F)ccc43)c3c(c2)C(=O)N[C@@H]3c2cc(F)ccc2Cl)cn1 (single isomer, unassigned)
2. O=C1N[C@H](c2cc(F)ccc2Cl)c2c(Nc3nccc4c(C(F)(F)F)cc(F)cc34)cc(Br)cc21
3. Cc1ccccc1C1NC(=O)c2cccc(NC(=O)c3nscc3Br)c21 (stereo not shown)
4. O=C(Nc1cc(-n2cccn2)cc2c1[C@@H](c1cc(F)ccc1Cl)NC2=O)c1cc(F)cc(C(F)(F)F)c1
5. N#Cc1cccc(S(=O)(=O)Cc2cc(NC(=O)c3cc(F)cc(C(F)(F)F)c3)c3c(c2)C(=O)NC3c2cc(F)ccc2Cl)c1 (stereo not shown)
6. O=C(Nc1cc(-n2ccnn2)cc2c1C(c1cc(F)ccc1Cl)NC2=O)c1cc(F)cc(C(F)(F)F)c1 (stereo not shown)
7. O=C1N[C@H](c2cc(F)ccc2Cl)c2c(NC(=O)[C@H]3C[C@H](O)C[C@@H](C(F)(F)F)C3)cccc21 (single isomer, unassigned)

# output
["1 to 10 µM", "1 to 10 µM", "1 to 10 µM", "1 to 10 µM", "≤ 0.1 µM", "≤ 0.1 µM", "10 to 100 µM"]

State the recorded IC50 for every item in the following list.
1. COc1cc(F)cc(C(=O)Nc2cccc3c2C(c2ccccc2C)NC3=O)c1 (stereo not shown)
2. O=C1NC(c2cc(F)ccc2Cl)c2c(NC(=O)C34CC5CC(CC(C5)O3)C4)cccc21 (stereo not shown)
3. O=C1NC(c2cc(F)ccc2Cl)c2c(NC(=O)N3CC(O)(C(F)(F)F)c4cc(F)ccc43)cc(F)cc21 (stereo not shown)
4. Nc1ncc(-c2cc(NC(=O)c3cc(F)cc(C(F)(F)F)c3)c3c(c2)C(=O)N[C@@H]3c2cc(F)ccc2Cl)cn1 (stereo in doubt)
5. O=C(Nc1cc(-c2cnoc2)cc2c1C(c1cc(F)ccc1Cl)NC2=O)c1cc(F)cc(C(F)(F)F)c1 (stereo not shown)
6. CS(=O)(=O)N1CC(Oc2cc(NC(=O)c3cc(F)cc(C(F)(F)F)c3)c3c(c2)C(=O)NC3c2cc(F)ccc2Cl)C1 (stereo not shown)
7. CC(C)[C@H](N)C(=O)N1C(=O)c2cc(-c3ccc4ncnn4c3)cc(NC(=O)c3cc(F)cc(C(F)(F)F)c3)c2C1c1cc(F)ccc1Cl (stereo partly shown)
8. O=C(Nc1cc(Cn2ccnc2)cc2c1C(c1cc(F)ccc1Cl)NC2=O)c1cc(F)cc(C(F)(F)F)c1 (stereo not shown)

# output
["1 to 10 µM", "10 to 100 µM", "≤ 0.1 µM", "≤ 0.1 µM", "≤ 0.1 µM", "≤ 0.1 µM", "≤ 0.1 µM", "≤ 0.1 µM"]

====

Hi there, I'd appreciate the recorded IC50 for every entry that follows.
target: H1047R PIK3CA enzyme (Homo sapiens, UniProt P42336, H1047R); test: ADP-Glo Biochemical PIK3CA Kinase Assay

Reference set (2 entries):
CC(O)(c1ccncc1)c1cc(NC(=O)c2cc(F)cc(C(F)(F)F)c2)c2c(c1)C(=O)NC2c1cc(F)ccc1Cl (stereo not drawn) | ≤ 100 nM
O=C1N[C@H](c2cc(F)ccc2Cl)c2c(NC(=O)N3C[C@](O)(C(F)(F)F)c4cc(F)ccc43)ccc(-n3cccn3)c21 (single isomer, unassigned) | 1000 to 10000 nM

Let's switch to this molecule now.
The recorded IC50 for CCn1cc(-c2cc(NC(=O)c3cc(F)cc(C(F)(F)F)c3)c3c(n2)C(=O)NC3c2cc(F)ccc2Cl)ccc1=O (stereo not drawn) is ≤ 100 nM

Value source: patent US12581252B2
